System: 4T1 murine breast cancer cells
Test: In vitro cellular inhibition (MTT) and synergy quantification
Assay type: cell-based
Conditions: free drugs and free drug combinations, 72 hours, 500 cells/well
measurement_name: pIC50
The read-out pIC50 is expressed as -log10 of concentration in moles per litre.

CCc1c2c(nc3ccc(OC(=O)N4CCC(N5CCCCC5)CC4)cc13)-c1cc3c(c(=O)n1C2)COC(=O)[C@]3(O)CC | 4.85

Output measured pIC50 for this item: COc1cccc2c1C(=O)c1c(O)c3c(c(O)c1C2=O)C[C@@](O)(C(=O)CO)C[C@@H]3O[C@H]1C[C@H](N)[C@H](O)[C@H](C)O1 7.44
